target: VpBTN2 B30.2 and VpBTN3 B30.2 ΔC domains (Vicugna pacos, UniProt A0A345DF50+A0A6J0B3M7); construct: mixture of VpBTN2 B30.2 (residues 311-535) and VpBTN3 B30.2 ΔC (residues 323-513), mixed 2:1; E. coli BL21(DE3), His tags removed by TEV; VpBTN2 site R475, T508, V509; experiment: ITC, DMASPP titrated into mixture of VpBTN2 and VpBTN3 B30.[…] ΔC (first titration)
Sequence (A0A345DF50 323-513, stated change not applied): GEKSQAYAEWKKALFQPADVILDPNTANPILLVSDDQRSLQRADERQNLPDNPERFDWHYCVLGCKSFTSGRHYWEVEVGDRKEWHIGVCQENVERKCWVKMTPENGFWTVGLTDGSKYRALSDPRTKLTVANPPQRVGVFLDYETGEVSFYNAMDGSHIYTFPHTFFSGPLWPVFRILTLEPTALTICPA
Sequence (A0A6J0B3M7 311-535, stated change not applied): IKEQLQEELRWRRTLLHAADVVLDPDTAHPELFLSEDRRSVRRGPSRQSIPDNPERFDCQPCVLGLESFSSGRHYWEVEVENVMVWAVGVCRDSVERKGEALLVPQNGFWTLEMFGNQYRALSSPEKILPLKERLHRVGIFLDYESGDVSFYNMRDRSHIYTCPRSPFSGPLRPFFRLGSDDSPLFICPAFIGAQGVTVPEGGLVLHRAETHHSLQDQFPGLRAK
VALUE KIND: pKd
Bear in mind: pKd is minus log10 of a mol/L concentration; give just that figure.

QUERY: Which pKd value belongs to CC(C)=CCSP(=O)(O)OP(=O)(O)O ?
RESULT: 5.36

====

target: VpBTN3 B30.2 ΔC (Vicugna pacos); construct: intracellular B30.2 domain, residues 323-513, C-terminal loop truncated; pET32a, E. coli BL21(DE3); N-terminal His tag removed by TEV; pocket H381, H408, W421, K423, R442, R448, R499; assay: ITC; crystal structure
Sequence (A0A345DF50 323-513, stated change not applied): as the sequence (A0A345DF50 323-513, stated change not applied) above
VALUE KIND: Kd (µM)
Respond numerically; units are µM and should not be typed.

QUERY: Which Kd value belongs to CC(C)=CCSP(=O)(O)OP(=O)(O)O [DMASPP] ?
RESULT: 44.7
